System: WiDr
Assay: Antiproliferative activity against human WiDr cells assessed as reduction in cell viability after 48 hrs by alamarBlue assay
Assay type: functional, cell-based
The source made the active and inactive calls. No cut-off for these calls is given here.
measurement_kind: Activity

structure: CO[C@H]1C=C2[C@@H](CC[C@H](OC(=O)CC(=O)O)C2(C)C)[C@]2(C=O)CC[C@]3(C)[C@@H]([C@H](C)C/C=C/C(C)(C)OC)CC[C@@]3(C)[C@H]12
assay_value: inactive
//
structure: CO[C@@H]1O[C@]23C=C[C@@H]4[C@@]1(CC[C@]1(C)[C@@H]([C@H](C)C/C=C/C(C)(C)O)CC[C@@]41C)[C@@H]2CC[C@H](OC(=O)CC(=O)O)C3(C)C
assay_value: inactive
//
structure: C/C=C/C(=O)O[C@H]1CC[C@@H]2C(=C[C@H](O)[C@@H]3[C@@]2(C=O)CC[C@]2(C)[C@@H]([C@H](C)C/C=C/C(C)(C)O)CC[C@@]32C)C1(C)C
assay_value: inactive
